# experimental system: Phospholipid hydroperoxide glutathione peroxidase GPX4 (Homo sapiens) (UniProt P36969)
# Sequence (P36969 whole entry, looked up): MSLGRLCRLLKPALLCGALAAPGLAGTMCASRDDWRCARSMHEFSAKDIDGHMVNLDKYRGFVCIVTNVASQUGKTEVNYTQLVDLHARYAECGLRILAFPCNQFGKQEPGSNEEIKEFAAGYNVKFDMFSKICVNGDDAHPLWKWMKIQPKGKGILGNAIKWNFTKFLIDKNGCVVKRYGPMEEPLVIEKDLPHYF
# assay notes: Primary qHTS Assay for Inhibitors of Recombinant Selenoprotein Glutathione Peroxidase 4 (GPX4) (AID 1845192); also: nearly all actives have a fitted effect of over 65% in size
# conditions: recombinant GPX4, GR-coupled NADPH fluorescence, 15 min; series mostly up to 50 µM
Inconclusive results are not listed. Active and inactive are the calls of the source. Calls follow the shape of the dose curve; as a rule, active = well fitted inhibition curve with a large enough effect; inconclusive = small, poorly fitted or top-dose-only effect; inactive = flat fitted curve, though single readings scatter. *1 amine or outer side, *2 acyl side, *3 side chain or, on linkers, in order; H or OH if unused. Where a SMILES comes first, the peptide text is derived from it. Bridges are numbered along the chain shown (N, C = ends). [ ]: non-standard residue; d: D form. The star is where a group is joined. pTerphenylCO(4''-OnC5H11) = CCCCCOc1ccc(-c2ccc(-c3ccc(C(=O)*)cc3)cc2)cc1; Orn(4R-OH,5R-OH) = O=C([C@H](C[C@@H](O)[C@@H](O)N[*:3])N[*:1])[*:2]; hTyr(3S-OH,4S-OH) = N[C@H](C(=O)O)[C@H](O)[C@@H](O)c1ccc(O)cc1; Pro(3S-OH,4S-Me) = C[C@H]1CN[C@H](C(=O)O)[C@H]1O; Hyp = O=C(O)[C@@H]1C[C@@H](O)CN1
Pick from 1 (active), -1 (inactive) when you respond.

molecule	experimental system	assigned label
CC(C(=O)O)c1ccc(C2CCCCC2)c2ccccc12 (stereo unspecified)	Phospholipid hydroperoxide glutathione peroxidase GPX4 (Homo sapiens) (UniProt P36969)	1
Cn1cc(-c2ccc(S(=O)(=O)n3ccc(/C=C/C(=O)Nc4ccccc4N)c3)cc2)cn1	Phospholipid hydroperoxide glutathione peroxidase GPX4 (Homo sapiens) (UniProt P36969)	-1
FC(F)(F)c1ccc(/C=C/c2nc(COc3ccc(CCCCn4ccnn4)cc3)co2)cc1	Phospholipid hydroperoxide glutathione peroxidase GPX4 (Homo sapiens) (UniProt P36969)	-1
CNS(=O)(=O)c1ccccc1Nc1nc(Nc2ccc(N3CCN(C)CC3)cc2OC)ncc1Br	Phospholipid hydroperoxide glutathione peroxidase GPX4 (Homo sapiens) (UniProt P36969)	-1

Which outcome was entered for the molecule "O=C(c1ccccc1)c1c(O)cc(O)cc1O[C@@H]1O[C@H](CO)[C@@H](O)[C@H](O)[C@H]1O" in this test?
-1

// next record "Cc1cc2occ(CN(C)CCN(C)Cc3cn(-c4cccc(C(F)(F)F)c4)c4ccccc34)c(=O)c2cc1C"
-1

// next record "C=C1C(=O)O[C@@H]2C3=C(C)CCC[C@]3(C)CC[C@@]12O"
-1

// next record "O=C(CCCN1CCC(n2c(=S)[nH]c3ccccc32)CC1)c1ccc(F)cc1"
1

// next record CCCCCOc1ccc(-c2ccc(-c3ccc(C(=O)N[C@H]4C[C@@H](O)[C@@H](O)NC(=O)[C@@H]5[C@@H](O)[C@@H](C)CN5C(=O)[C@H]([C@@H](C)O)NC(=O)[C@H]([C@H](O)[C@@H](O)c5ccc(O)cc5)NC(=O)[C@@H]5C[C@@H](O)CN5C(=O)[C@H]([C@@H](C)O)NC4=O)cc3)cc2)cc1 ({pTerphenylCO(4''-OnC5H11)}-[Orn(4R-OH,5R-OH)]T[Hyp][hTyr(3S-OH,4S-OH)]T[Pro(3S-OH,4S-Me)]; lactam 1-C)
-1

// next record "CN[C@@H]1CCc2[nH]c3ccc(C(N)=O)cc3c2C1"
-1

---

# System: Tov-21-G
# assay notes: Primary qHTS to identify gynecologic anti-cancer compounds using libraries of approved drugs and bioactive compounds (AID 1345084); also: nearly all actives have a fitted effect of over 55% in size
# conditions: Gynecologic cancer cell panel viability, ATPlite luminescence, 48 h; series mostly up to 57.5 µM
Records with an inconclusive call do not appear. Calls of active or inactive are those of the source. Calls come from the whole dose curve; as a rule, active = well fitted cell-killing curve with a large enough effect; inconclusive = small, poorly fitted or top-dose-only effect, or effect the other way; inactive = flat fitted curve, though single readings scatter.
recorded metric: outcome

compound	experimental system	meas value
CC(=O)O[C@H]1CC[C@]2(C)[C@H]3CC[C@]4(C)Oc5oc(C)cc(=O)c5C[C@H]4[C@]3(C)CC[C@H]2C1(C)C	Tov-21-G	inactive
CC(C)C(C)C(O)C1CC23CC(=O)C4(O)C(=C2CCC3C1C)C=CC1(O)CC(O)CCC14C (centres undefined)	Tov-21-G	inactive
C/C=C(\C)C(=O)OC1C=C(C)CC(OC(=O)c2ccc(O)cc2)C2C1(C)CCC2(O)C(C)C (centres undefined)	Tov-21-G	inactive
CCN1CCN(Cc2ccc(C(=O)Nc3ccc(C)c(Oc4ccc5c(c4)CC(=O)N5)c3)cc2C(F)(F)F)CC1	Tov-21-G	inactive
CNC(=O)[C@@H](c1ccccc1)N1CCc2cc(OC)c(OC)cc2[C@@H]1CCc1ccc(C(F)(F)F)cc1	Tov-21-G	inactive

// lookup outcome | system=Tov-21-G | key= "Cc1cc(C(=O)Cn2cc(C#N)ccc2=O)c(C)n1Cc1ccccc1"
inactive

// next record "Fc1ccc(-c2nc(-c3ccccc3F)[nH]c2-c2ccncc2)cc1"
inactive

// next record "C=CCC1=C[C@]2(OC)[C@H](C)[C@@H](c3ccc4c(c3)OCO4)O[C@]2(OC)CC1=O"
inactive

// next record "COc1cc(OC)c2c(=O)[nH]c(-c3cc(C)c(OCCO)c(C)c3)nc2c1"
inactive

---

# assay notes: qHTS to identify inhibitors of the type 1 interferon - major histocompatibility complex class I in skeletal muscle: primary screen against the NCATS Mechanism Interrogation Plate v5.0 (MIPE) Libary (AID 1347411); also: nearly all actives have a fitted effect of over 65% in size
# conditions: iHSKM cells + IFN-b, HiBiT-tagged MHC-I luminescence, 24 h; series mostly up to 45.8 µM
Results filed as inconclusive are left out. Calls of active or inactive are those of the source. Calls come from the whole dose curve; as a rule, active = well fitted inhibition curve with a large enough effect; inconclusive = small, poorly fitted or top-dose-only effect; inactive = no such curve, though single readings can be large or run the other way.
Pick from T (active), F (inactive) when you respond.

Please review the following examples before continuing.
compound	assigned label
O=C(c1c(F)ccc(NS(=O)(=O)N2CC[C@@H](F)C2)c1F)c1c[nH]c2ncc(-c3cnc(C4CC4)nc3)cc12	F
Cc1cccc(CC(=O)N2CCc3c2ccc(-c2cn(C)c4ncnc(N)c24)c3F)n1	F
Cc1c(NC(=O)c2cc3c(s2)CCCC3)cccc1-c1cn(C)c(=O)c(Nc2ccc(C3C(=O)N(C)CCN3C)cc2)n1 (configuration not stated)	F
Cc1cc(-c2cc(OC(=O)c3ccccc3)ccc2Cl)cc2nnc(Nc3ccc(OCCN4CCCC4)cc3)nc12	F

Which outcome was entered for the compound "CC(C)NC(=O)COc1cccc(-c2nc(Nc3ccc4[nH]ncc4c3)c3ccccc3n2)c1" in this test?
F

// next record "CCC[C@H](N[C@H]1CCc2cc(F)cc(F)c2C1)C(=O)Nc1cn(C(C)(C)CNCC(C)(C)C)cn1"
F

// next record "CCOC(=O)[C@@]1(CCCCCCOc2ccc(Cl)cc2)CO1"
F

// next record "C=CCNC1=C2C[C@@H](C)C[C@H](OC)[C@H](O)[C@@H](C)/C=C(\C)[C@H](OC(N)=O)[C@@H](OC)/C=C\C=C(/C)C(=O)NC(=CC1=O)C2=O"
T

// next record "COc1ccc(-n2c(SCCCN3C(=O)c4cccc5cccc(c45)C3=O)nnc2-c2ccncc2)cc1"
F

// next record "Fc1ccc2[nH]ccc2c1-c1nc(N2CCOCC2)c2sc(CN3CCN(CC4CC4)CC3)cc2n1"
T

// next record "O=C1Nc2nc(-c3c(O)cccc3OCC3CC3)cc([C@@H]3CCCNC3)c2CO1"
T

// next record "CS(=O)(=O)c1ccc(Oc2cc(F)cc(C#N)c2)c2c1[C@H](O)C(F)(F)C2"
F

// next record "Cc1nnc(C[C@@H]2C=C(c3ccc(Cl)cc3)c3ccccc3-n3c(C)nnc32)o1"
F

// next record "O=C(Nc1ccc2[nH]nc(-c3ccncc3)c2c1)[C@@H]1CCN(CC(=O)N2CCN(c3ccc(-c4ncccn4)cc3)CC2)C1"
F

// next record "CC#C[C@@H](CC(=O)O)c1ccc(OCc2cccc(-c3ccc(C(F)(F)F)cc3)c2)cc1"
F

// next record "Cc1[nH]c(/C=C2\C(=O)Nc3ccc(S(=O)(=O)N(C)c4cccc(Cl)c4)cc32)c(C)c1C(=O)N1CCN(C)CC1"
T

// next record "CN1CCN(c2ccc(-c3cccc(CN4CCOCC4)c3)cc2NC(=O)c2c[nH]c(=O)cc2C(F)(F)F)CC1"
F

---

# Tested on: SKOV3
# assay notes: Primary qHTS to identify gynecologic anti-cancer compounds using libraries of approved drugs and bioactive compounds (AID 1345084); also: nearly all actives have a fitted effect of over 55% in size
# conditions: Gynecologic cancer cell panel viability, ATPlite luminescence, 48 h; series mostly up to 57.5 µM
Results filed as inconclusive are left out. Active and inactive are the calls of the source. Calls follow the shape of the dose curve; as a rule, active = well fitted cell-killing curve with a large enough effect; inconclusive = small, poorly fitted or top-dose-only effect, or effect the other way; inactive = flat fitted curve, though single readings scatter.
Pick from t (active), f (inactive) when you respond.

Please review the following examples before continuing.
molecule	assigned label
CC(C)=CCC/C(C)=C/COCC1OC(n2ccc(=O)[nH]c2=O)C(O)C1O (stereo not drawn)	f
COc1cc(N2CCC(N3CCN(C)CC3)CC2)ccc1Nc1ncc(Cl)c(Nc2ccccc2P(C)(C)=O)n1	t
c1cc(NC2CCNCC2)nc(-c2cnc3ccccn23)c1	t

Which outcome was entered for the molecule "O=C(NC1(c2ccccc2)CC1)c1c(CN2CCC(N3CCCCC3)CC2)c(-c2cccc(C(F)(F)F)c2)nc2cc(Br)ccc12" in this test?
f

// next record "N[C@@H]1c2cccnc2[C@H](OC(=O)N2CCC(n3c(=O)[nH]c4ncccc43)CC2)CC[C@H]1c1cccc(F)c1F"
f

// next record "CCC/C=C\C=C/CCc1cc(O)c([C@@H]2O[C@H](CO)[C@@H](O)[C@H](O)[C@H]2O)c(O)c1C(=O)OC"
f

// next record "Cc1cc2sc(NC(=O)Cc3ccccc3)nc2cc1Cl"
f

// next record "O=C(NC1CCC1)c1ccc(C#Cc2cccc(F)c2)nc1"
f

// next record "O=C1Nc2ccccc2-c2nc3ccccc3c(=O)n2-c2c(O)cccc21"
f

// next record "COc1cc(CCC2=NN=C(NC(=O)c3ccc(N4C[C@@H](C)N[C@@H](C)C4)cc3)C2)cc(OC)c1"
t

// next record CC(=O)OC1C(O)CC2(C)C(CCC3(C)C2CC=C2C4C5(CCC(CO[C@@H]6O[C@H](CO)[C@@H](O)[C@H](O)[C@H]6O)(OC5=O)C4(C)O)C(O)CC23C)C1(C)C (stereo partly drawn)
f

// next record C=CC(C)(C)C12CC3C(=O)N4C(CC5(C(C)(C)C=C)c6ccccc6NC45)C(=O)N3C1Nc1ccccc12 (stereo not drawn)
f

// next record "C=C1/C(=C/C=C2\CCC[C@]3(C)[C@@H]([C@H](C)/C=C/[C@@H](C)C(C)C)CC[C@@H]23)C[C@@H](O)C[C@@H]1O"
f

// next record "COc1nc2ccc(Br)cc2cc1[C@@H](c1ccccc1)[C@@](O)(CCN(C)C)c1cccc2ccccc12"
f

// next record C=C1/C(=C/C=C2\CCC[C@@]3(C)C2CCC3[C@H](C)/C=C/[C@@H](O)C2CC2)C[C@@H](O)C[C@@H]1O (stereo partly drawn)
f

// next record COc1ccccc1N1CCN(CC(C(=O)NC(C)(C)C)c2ccccc2)CC1 (stereo not drawn)
f

// next record "CCNC(=O)N1CCCN(c2ccc(C(=O)NCCc3ccc(Cl)cc3Cl)cc2NC(=O)c2cccc(Cl)c2)CC1"
t

// next record "Cc1[nH]c2ccccc2c1CCNC(=O)c1cccs1"
f
